# Test system: Pseudomonas aeruginosa
# Protocol Details: Antibacterial activity against Pseudomonas aeruginosa MTCC 741 assessed as growth inhibition after 24 hr by agar streak dilution method
# Format: functional
# Condition Info: MTCC 741, 24 h
Outcome Measure: MIC

Previously resolved entries follow.
{"Molecule": "CC1CC(C)CN(c2nc(-c3ccc(NCC(=O)Nc4nc5ccc(I)cc5s4)cc3)nc(N3CC(C)CC(C)C3)n2)C1 (stereo not drawn)", "Study Target": "Pseudomonas aeruginosa", "MIC": "50 µg/mL"}
{"Molecule": "CC1CC(C)CN(c2nc(-c3ccc(NCC(=O)Nc4nc5ccc([N+](=O)[O-])cc5s4)cc3)nc(N3CC(C)CC(C)C3)n2)C1 (stereo not drawn)", "Study Target": "Pseudomonas aeruginosa", "MIC": "50 µg/mL"}
{"Molecule": "CC1CC(C)CN(c2nc(-c3ccc(NCC(=O)Nc4ccc(F)cc4)cc3)nc(N3CC(C)CC(C)C3)n2)C1 (stereo not drawn)", "Study Target": "Pseudomonas aeruginosa", "MIC": "12.5 µg/mL"}

Ask | May I ask what MIC has been recorded for CC1CC(C)CN(c2nc(-c3ccc(NCC(=O)Nc4ccc([N+](=O)[O-])cc4)cc3)nc(N3CC(C)CC(C)C3)n2)C1 (stereo not drawn) ?
Reply | 50 µg/mL

Ask | Now try CC1CC(C)CN(c2nc(-c3ccc(NCC(=O)Nc4nc5ccc(C#N)cc5s4)cc3)nc(N3CC(C)CC(C)C3)n2)C1 (stereo not drawn) .
Reply | 50 µg/mL

Ask | Try this molecule next: Cc1ccc(NC(=O)CNc2ccc(-c3nc(N4CC(C)CC(C)C4)nc(N4CC(C)CC(C)C4)n3)cc2)cc1 (stereo not drawn)
Reply | 50 µg/mL

----------
The following compounds are shown together with reported MIC values.
# Tested on: Staphylococcus aureus
# Protocol Details: Antibacterial activity against Staphylococcus aureus MTCC 96 assessed as growth inhibition after 24 hr by agar streak dilution method
# Format: functional
# Condition Info: MTCC 96, 24 h
Please respond with the number in µg/mL and leave the unit unwritten.

{"Compound": "CC1CC(C)CN(c2nc(-c3ccc(NCC(=O)Nc4nc5ccc(Br)cc5s4)cc3)nc(N3CC(C)CC(C)C3)n2)C1 (stereo not drawn)", "Study Target": "Staphylococcus aureus", "Observed": 1.56}
{"Compound": "CC1CC(C)CN(c2nc(-c3ccc(NCC(=O)Nc4ccc(Br)cc4)cc3)nc(N3CC(C)CC(C)C3)n2)C1 (stereo not drawn)", "Study Target": "Staphylococcus aureus", "Observed": 3.12}
{"Compound": "Cc1ccc2nc(NC(=O)CNc3ccc(-c4nc(N5CC(C)CC(C)C5)nc(N5CC(C)CC(C)C5)n4)cc3)sc2c1 (stereo not drawn)", "Study Target": "Staphylococcus aureus", "Observed": 50}

Ask | Given the compound COc1ccc(NC(=O)CNc2ccc(-c3nc(N4CC(C)CC(C)C4)nc(N4CC(C)CC(C)C4)n3)cc2)cc1 (stereo not drawn) , what is its reported MIC?
Reply | 50

Ask | Likewise for CCOc1ccc2nc(NC(=O)CNc3ccc(-c4nc(N5CC(C)CC(C)C5)nc(N5CC(C)CC(C)C5)n4)cc3)sc2c1 (stereo not drawn) ?
Reply | 6.25

Ask | Now the compound CC1CC(C)CN(c2nc(-c3ccc(NCC(=O)Nc4ccccc4)cc3)nc(N3CC(C)CC(C)C3)n2)C1 (stereo not drawn)
Reply | 50

Ask | # iterate: CC1CC(C)CN(c2nc(-c3ccc(NCC(=O)Nc4nc5ccc(C#N)cc5s4)cc3)nc(N3CC(C)CC(C)C3)n2)C1 (stereo not drawn)
Reply | 6.25

Ask | Also, COc1ccc2nc(NC(=O)CNc3ccc(-c4nc(N5CC(C)CC(C)C5)nc(N5CC(C)CC(C)C5)n4)cc3)sc2c1 (stereo not drawn) please.
Reply | 1.56
